Origin of the recorded values: paper PMC10202359

Test System: NRMT1 (Homo sapiens, UniProt Q9BV86)
Sequence (Q9BV86 whole entry, species assumed): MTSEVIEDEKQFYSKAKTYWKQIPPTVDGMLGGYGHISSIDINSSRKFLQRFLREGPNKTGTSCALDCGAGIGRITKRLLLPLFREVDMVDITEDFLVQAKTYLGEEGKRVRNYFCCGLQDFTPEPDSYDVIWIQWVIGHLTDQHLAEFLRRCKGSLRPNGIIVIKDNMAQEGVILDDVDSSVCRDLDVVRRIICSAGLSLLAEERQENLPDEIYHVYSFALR
Assay Method Text: Methyltransferase Hot Spot radioisotope assay, NRMT1
Type: biochemical
Experimental Parameters: 10-dose, threefold dilution; CC-410 from 300 μM, control from 100 μM; substrate RCC1
Test Readout: IC50 (nM)
Give bare numbers, in nM.

# return recorded IC50 for entry Nc1ncnc2c1ncn2[C@@H]1O[C@H](CSCC[C@H](N)C(=O)O)[C@@H](O)[C@H]1O [SAH, S-(5′-Adenosyl)-L-homocysteine, reference compound]
1680

###

Test System: METTL21A (Homo sapiens)
Sequence (Q8WXB1 whole entry, species assumed): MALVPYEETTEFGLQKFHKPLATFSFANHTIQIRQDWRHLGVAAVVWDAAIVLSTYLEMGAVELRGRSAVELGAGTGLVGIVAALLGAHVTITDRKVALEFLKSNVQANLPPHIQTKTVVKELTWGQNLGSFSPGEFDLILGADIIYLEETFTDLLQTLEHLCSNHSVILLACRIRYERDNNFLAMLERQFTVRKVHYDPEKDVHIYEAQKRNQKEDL
Assay Method Text: Methyltransferase Hot Spot radioisotope assay, METTL21A
Format: biochemical
Experimental Parameters: 10-dose, threefold dilution; CC-410 from 300 μM, control from 100 μM; substrate HSPA8-[CTD]
Test Readout: IC50 (µM)
Give bare numbers, in µM.

# return recorded IC50 for entry Nc1ncnc2c1ncn2[C@@H]1O[C@H](CSCC[C@H](N)C(=O)O)[C@@H](O)[C@H]1O [SAH, S-(5′-Adenosyl)-L-homocysteine, reference compound]
76.1
